Test system: MZ7MEL
Assay remarks: relative viability (cell count relative to DMSO-treated control) (fraction of DMSO control); higher = more viable cells / less drug effect
Experimental setup: 48 h; 0.0316 µM
Assignment: determine reported relative viability for the given compounds.
Give bare numbers.

Example entries begin here.
CCCS(=O)(=O)Nc1ccc(F)c(C(=O)c2c[nH]c3ncc(-c4ccc(Cl)cc4)cc23)c1F [Vemurafenib] :: 1.07
Cn1cnc2c(F)c(Nc3ccc(Br)cc3Cl)c(C(=O)NOCCO)cc21 [Selumetinib] :: 1.04
Cc1ccc(NC(=O)c2cccc(C(C)(C)C#N)c2)cc1Nc1ccc2ncn(C)c(=O)c2c1 [AZ628] :: 1
CCCS(=O)(=O)Nc1ccc(F)c(C(=O)c2c[nH]c3ncc(Cl)cc23)c1F [PLX4720] :: 1.02

# next compound below
relative viability recorded for this compound, CN(C)CCOc1ccc(-c2nc(-c3ccncc3)c(-c3ccc4c(c3)CC/C4=N\O)[nH]2)cc1 , is 0.991
